Where do the numbers come from? From the RNAGym collection of RNA variant scans (doi:10.1101/gad.245936.114).

B1: tRNA (parent)
chain: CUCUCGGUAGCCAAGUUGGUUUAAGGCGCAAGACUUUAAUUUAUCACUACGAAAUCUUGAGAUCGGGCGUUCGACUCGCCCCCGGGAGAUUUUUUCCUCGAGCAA

Variants of: B1
PROTOCOL: nonsense suppression (GFP-seq) (ratio to wild type); higher = more function; SUP4oc tRNA, yeast GFP reporter sort-seq
Variants at the floor of the assay were thinned out.
Given measured nonsense suppression, output MET if it is greater than or equal to 0.3 and NOT MET if not.

{"VARIANT KEY": "U2C G61U", "CLASS LABEL": "NOT MET"}
{"VARIANT KEY": "U16G G67A", "CLASS LABEL": "NOT MET"}
{"VARIANT KEY": "U16G A30C A31G U55A U57A", "CLASS LABEL": "NOT MET"}
{"VARIANT KEY": "U2A A13C", "CLASS LABEL": "NOT MET"}
{"VARIANT KEY": "G61A G65C G69A C80U", "CLASS LABEL": "NOT MET"}
{"VARIANT KEY": "U22A G28U A54U U70G A87C", "CLASS LABEL": "NOT MET"}
{"VARIANT KEY": "A33G C75U", "CLASS LABEL": "NOT MET"}
{"VARIANT KEY": "C12U A24U U71G", "CLASS LABEL": "NOT MET"}
{"VARIANT KEY": "G7A G10U U20A U35G U57G U63C", "CLASS LABEL": "NOT MET"}
{"VARIANT KEY": "C3U A13U C34G", "CLASS LABEL": "NOT MET"}
{"VARIANT KEY": "U57A G85A", "CLASS LABEL": "NOT MET"}
{"VARIANT KEY": "A60U G65C C81G", "CLASS LABEL": "NOT MET"}
{"VARIANT KEY": "U16G G78C", "CLASS LABEL": "NOT MET"}
{"VARIANT KEY": "U4C A60C", "CLASS LABEL": "MET"}
{"VARIANT KEY": "G6A A62U", "CLASS LABEL": "NOT MET"}
{"VARIANT KEY": "C27A G61U G86U", "CLASS LABEL": "NOT MET"}
{"VARIANT KEY": "C3G C77A C83A", "CLASS LABEL": "NOT MET"}
{"VARIANT KEY": "G7U U58G C80G", "CLASS LABEL": "NOT MET"}
{"VARIANT KEY": "C27G G73C", "CLASS LABEL": "NOT MET"}
{"VARIANT KEY": "U20A A31G", "CLASS LABEL": "MET"}
{"VARIANT KEY": "G32U C56G", "CLASS LABEL": "NOT MET"}
{"VARIANT KEY": "G28U C34A A87U", "CLASS LABEL": "NOT MET"}
{"VARIANT KEY": "U22A A30G", "CLASS LABEL": "MET"}
{"VARIANT KEY": "A33G G88C", "CLASS LABEL": "NOT MET"}
{"VARIANT KEY": "U4G A13G U16C", "CLASS LABEL": "NOT MET"}
{"VARIANT KEY": "U2C U63G G73A", "CLASS LABEL": "NOT MET"}
{"VARIANT KEY": "U22C G26A U57G", "CLASS LABEL": "NOT MET"}
{"VARIANT KEY": "U16G G85U", "CLASS LABEL": "MET"}
{"VARIANT KEY": "C5U C83G", "CLASS LABEL": "NOT MET"}
{"VARIANT KEY": "C1A C12G U58A", "CLASS LABEL": "NOT MET"}
{"VARIANT KEY": "C5U C29U C34U A87C", "CLASS LABEL": "NOT MET"}
{"VARIANT KEY": "U22C A33G G59A", "CLASS LABEL": "NOT MET"}
{"VARIANT KEY": "G15U U17A U55C", "CLASS LABEL": "NOT MET"}
{"VARIANT KEY": "U76G C79G G88A", "CLASS LABEL": "NOT MET"}
{"VARIANT KEY": "U21G A30G", "CLASS LABEL": "NOT MET"}
{"VARIANT KEY": "G61U G78U", "CLASS LABEL": "NOT MET"}
{"VARIANT KEY": "A13G U21G C77G", "CLASS LABEL": "NOT MET"}
{"VARIANT KEY": "G15A G28A C75A", "CLASS LABEL": "NOT MET"}
{"VARIANT KEY": "G59C A87U", "CLASS LABEL": "NOT MET"}
{"VARIANT KEY": "G66A G67A G86C", "CLASS LABEL": "NOT MET"}
{"VARIANT KEY": "U20C G59A", "CLASS LABEL": "NOT MET"}
{"VARIANT KEY": "A9C", "CLASS LABEL": "MET"}
{"VARIANT KEY": "C72U G85U", "CLASS LABEL": "NOT MET"}
{"VARIANT KEY": "A31C U76G", "CLASS LABEL": "NOT MET"}
{"VARIANT KEY": "U63G U76A", "CLASS LABEL": "MET"}
{"VARIANT KEY": "U21C U57C C80U G85A", "CLASS LABEL": "NOT MET"}
{"VARIANT KEY": "U4C U20C", "CLASS LABEL": "MET"}
{"VARIANT KEY": "C3G C77A", "CLASS LABEL": "NOT MET"}
{"VARIANT KEY": "A13U C27U G85A", "CLASS LABEL": "NOT MET"}
{"VARIANT KEY": "U21G A54U C75U", "CLASS LABEL": "MET"}
{"VARIANT KEY": "U2G U55C", "CLASS LABEL": "NOT MET"}
{"VARIANT KEY": "G7C G73U", "CLASS LABEL": "NOT MET"}
{"VARIANT KEY": "U8A C27G A54G C79U", "CLASS LABEL": "NOT MET"}
{"VARIANT KEY": "G26U U70G C79U", "CLASS LABEL": "NOT MET"}
{"VARIANT KEY": "G15U C29U", "CLASS LABEL": "NOT MET"}
{"VARIANT KEY": "U20G G73A", "CLASS LABEL": "MET"}
{"VARIANT KEY": "G84A G86U", "CLASS LABEL": "NOT MET"}
{"VARIANT KEY": "A33U U71A", "CLASS LABEL": "NOT MET"}
{"VARIANT KEY": "U63C C75A", "CLASS LABEL": "MET"}
{"VARIANT KEY": "C3G U8G U21C C34U", "CLASS LABEL": "NOT MET"}
{"VARIANT KEY": "U17G C68A G69U", "CLASS LABEL": "NOT MET"}
{"VARIANT KEY": "G59U U70C C72A", "CLASS LABEL": "NOT MET"}
{"VARIANT KEY": "C11G A31G", "CLASS LABEL": "NOT MET"}
{"VARIANT KEY": "A54C C75G", "CLASS LABEL": "MET"}
{"VARIANT KEY": "C11U A31G C77G", "CLASS LABEL": "NOT MET"}
{"VARIANT KEY": "G19C G67C", "CLASS LABEL": "NOT MET"}
{"VARIANT KEY": "U8A G10A G65A G85U", "CLASS LABEL": "NOT MET"}
{"VARIANT KEY": "A31U A62U", "CLASS LABEL": "NOT MET"}
{"VARIANT KEY": "U63G C80U", "CLASS LABEL": "NOT MET"}
{"VARIANT KEY": "U20C", "CLASS LABEL": "MET"}
{"VARIANT KEY": "U20A A24U", "CLASS LABEL": "NOT MET"}
{"VARIANT KEY": "A31U G73U", "CLASS LABEL": "NOT MET"}
{"VARIANT KEY": "U21G U63G", "CLASS LABEL": "NOT MET"}
{"VARIANT KEY": "C3U U20G", "CLASS LABEL": "NOT MET"}
{"VARIANT KEY": "U8A G25C U70A", "CLASS LABEL": "NOT MET"}
{"VARIANT KEY": "A9G C29U C75G", "CLASS LABEL": "NOT MET"}
{"VARIANT KEY": "G25U A60C", "CLASS LABEL": "NOT MET"}
{"VARIANT KEY": "C1U A54U G88A", "CLASS LABEL": "NOT MET"}
{"VARIANT KEY": "A9G U55C", "CLASS LABEL": "NOT MET"}
{"VARIANT KEY": "G28C", "CLASS LABEL": "MET"}
{"VARIANT KEY": "G67A C75A C79A", "CLASS LABEL": "NOT MET"}
{"VARIANT KEY": "A13C U16C", "CLASS LABEL": "MET"}
{"VARIANT KEY": "C11G U16G U58A G61A G67C", "CLASS LABEL": "NOT MET"}
{"VARIANT KEY": "A60U C81U", "CLASS LABEL": "MET"}
{"VARIANT KEY": "G61U G67A", "CLASS LABEL": "NOT MET"}
{"VARIANT KEY": "G78C A89U", "CLASS LABEL": "NOT MET"}
{"VARIANT KEY": "C1A A54G U58C U71C", "CLASS LABEL": "NOT MET"}
{"VARIANT KEY": "C34G G69C", "CLASS LABEL": "NOT MET"}
{"VARIANT KEY": "U4G G18C A24G G61C C81A", "CLASS LABEL": "NOT MET"}
{"VARIANT KEY": "U20C G86C", "CLASS LABEL": "NOT MET"}
